- STUDY_TARGET: T1, recombinant human IL-31 (hIL-31, BHK produced, A1277F, zcytor17lig CEE) (human, UniProt Q6EBC2 24-164)
- T1 construct: also called recombinant hIL-31
- T1 sequence: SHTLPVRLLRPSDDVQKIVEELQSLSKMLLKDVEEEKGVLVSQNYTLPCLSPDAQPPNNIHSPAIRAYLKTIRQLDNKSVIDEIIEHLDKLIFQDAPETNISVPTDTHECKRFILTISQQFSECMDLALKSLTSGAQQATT
- TEST_DETAILS: SPR (Biacore), mAb amine-coupled to CM5 chip, hIL-31 injected
READOUT_LABEL: koff (s⁻¹)
Number in s⁻¹, nothing else.

koff for humanized 292.12.3.1 construct clone 10 (12VH1-gly + LC(fback)) (antibody, human IgG4, V domains shown) VH: QVQLVQSGAEVKKPGASVKVSCKASGYTFTRYWMQWVRQAPGQGLEWMGAIYPGDGDTRYSQKFQGRVTMTRDTSISTVYMELSSLRSEDTAVYYCARPDGYYAAPYGMDYWGQGTLVTVSS VL: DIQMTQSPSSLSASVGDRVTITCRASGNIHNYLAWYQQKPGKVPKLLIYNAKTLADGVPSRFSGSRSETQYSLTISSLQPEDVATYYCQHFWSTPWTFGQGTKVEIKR ?
0.015

koff for humanized 292.12.3.1 construct clone 17 (12VH1-gly + HC(fback) + LC(D70Q, F71Y, T72S)) (antibody, human IgG4, V domains shown) VH: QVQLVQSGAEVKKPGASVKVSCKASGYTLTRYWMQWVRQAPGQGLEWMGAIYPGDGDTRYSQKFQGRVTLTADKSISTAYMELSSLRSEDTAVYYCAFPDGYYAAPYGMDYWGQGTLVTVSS VL: DIQMTQSPSSLSASVGDRVTITCRASGNIHNYLAWYQQKPGKVPKLLIYNAKTLADGVPSRFSGSGSGTQYSLTISSLQPEDVATYYCQHFWSTPWTFGQGTKVEIKR ?
6.5e-05

koff for humanized 292.12.3.1 construct clone 29 (12VH1-gly + HC(F29L, T73K, R94F) + LC(F71Y)) (antibody, human IgG4, V domains shown) VH: QVQLVQSGAEVKKPGASVKVSCKASGYTLTRYWMQWVRQAPGQGLEWMGAIYPGDGDTRYSQKFQGRVTMTRDKSISTVYMELSSLRSEDTAVYYCAFPDGYYAAPYGMDYWGQGTLVTVSS VL: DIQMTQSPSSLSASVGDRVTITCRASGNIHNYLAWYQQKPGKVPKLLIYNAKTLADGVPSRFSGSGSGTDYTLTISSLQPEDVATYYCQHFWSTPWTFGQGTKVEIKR ?
8.98e-05

koff for humanized 292.12.3.1 construct clone 25 (12VH1-gly + HC(F29L, R94F) + LC(F71Y)) (antibody, human IgG4, V domains shown) VH: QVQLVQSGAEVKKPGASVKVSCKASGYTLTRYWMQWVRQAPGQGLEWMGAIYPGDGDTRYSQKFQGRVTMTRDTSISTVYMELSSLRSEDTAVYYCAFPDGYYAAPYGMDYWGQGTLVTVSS VL: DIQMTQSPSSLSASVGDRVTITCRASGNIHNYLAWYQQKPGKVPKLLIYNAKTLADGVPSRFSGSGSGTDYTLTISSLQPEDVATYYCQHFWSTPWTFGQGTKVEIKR ?
7.2e-05

koff for humanized 292.12.3.1 construct clone 11 (12VH5-gly + HC(fback)) (antibody, human IgG4, V domains shown) VH: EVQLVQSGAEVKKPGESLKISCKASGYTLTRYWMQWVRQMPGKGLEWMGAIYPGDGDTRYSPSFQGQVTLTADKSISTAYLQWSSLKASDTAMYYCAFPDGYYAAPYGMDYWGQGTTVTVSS VL: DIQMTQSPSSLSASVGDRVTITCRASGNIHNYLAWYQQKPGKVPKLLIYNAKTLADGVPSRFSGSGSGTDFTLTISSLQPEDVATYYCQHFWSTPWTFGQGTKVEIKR ?
7.6e-05

koff for humanized 292.12.3.1 construct clone 23 (12VH5-gly + HC(fback) + LC(D70Q, F71Y, T72S)) (antibody, human IgG4, V domains shown) VH: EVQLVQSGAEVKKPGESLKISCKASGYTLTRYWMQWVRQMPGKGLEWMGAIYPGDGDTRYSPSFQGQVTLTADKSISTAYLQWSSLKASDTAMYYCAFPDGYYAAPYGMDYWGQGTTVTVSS VL: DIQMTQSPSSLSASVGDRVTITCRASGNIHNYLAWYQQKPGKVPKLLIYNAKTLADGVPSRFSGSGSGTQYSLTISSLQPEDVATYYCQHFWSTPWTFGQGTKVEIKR ?
9e-05

koff for humanized 292.12.3.1 construct clone 22 (12VH5-gly + HC(fback) + LC(G66R, G68E, D70Q, T72S)) (antibody, human IgG4, V domains shown) VH: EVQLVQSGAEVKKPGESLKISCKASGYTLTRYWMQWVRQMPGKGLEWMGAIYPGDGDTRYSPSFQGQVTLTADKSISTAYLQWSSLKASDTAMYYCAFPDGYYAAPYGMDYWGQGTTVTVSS VL: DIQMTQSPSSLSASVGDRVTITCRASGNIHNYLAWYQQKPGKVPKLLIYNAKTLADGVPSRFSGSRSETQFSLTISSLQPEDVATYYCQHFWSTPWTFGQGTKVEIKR ?
0.00011

koff for humanized 292.12.3.1 construct clone 26 (12VH1-gly + HC(fback) + LC(F71Y)) (antibody, human IgG4, V domains shown) VH: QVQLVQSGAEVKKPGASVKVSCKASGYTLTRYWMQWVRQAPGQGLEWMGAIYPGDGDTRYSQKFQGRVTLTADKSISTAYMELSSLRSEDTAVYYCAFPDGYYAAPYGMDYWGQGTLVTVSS VL: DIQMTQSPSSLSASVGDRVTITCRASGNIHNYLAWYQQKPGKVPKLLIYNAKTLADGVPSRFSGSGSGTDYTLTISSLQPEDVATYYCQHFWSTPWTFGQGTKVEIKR ?
7e-05

koff for humanized 292.12.3.1 construct clone 28 (12VH1-gly + HC(F29L, R71A, R94F) + LC(F71Y)) (antibody, human IgG4, V domains shown) VH: QVQLVQSGAEVKKPGASVKVSCKASGYTLTRYWMQWVRQAPGQGLEWMGAIYPGDGDTRYSQKFQGRVTMTADTSISTVYMELSSLRSEDTAVYYCAFPDGYYAAPYGMDYWGQGTLVTVSS VL: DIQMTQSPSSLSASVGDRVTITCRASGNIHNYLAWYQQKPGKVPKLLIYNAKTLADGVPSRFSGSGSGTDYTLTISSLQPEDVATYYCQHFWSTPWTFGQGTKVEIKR ?
5.6e-05

koff for humanized 292.12.3.1 construct clone 33 (12VH1(germ)-gly + fback) (antibody, human IgG4, V domains shown) VH: QVQLVQSGAEVKKPGASVKVSCKASGYTLTRYWMQWVRQAPGQGLEWMGAIYPGDGDTRYSQKFQGRVTLTADKSTSTAYMELSSLRSEDTAVYYCAFPDGYYAAPYGMDYWGQGTLVTVSS VL: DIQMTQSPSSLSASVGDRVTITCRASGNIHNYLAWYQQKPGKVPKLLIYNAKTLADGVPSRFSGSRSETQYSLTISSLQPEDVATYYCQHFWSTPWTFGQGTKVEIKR ?
6.8e-05
